Source listed as patent US9556148B2.

Reported pIC50 by item:
target-under-test: recombinant purified human JAK2 (Homo sapiens (Human), UniProt O60674)
Sequence (O60674 whole entry): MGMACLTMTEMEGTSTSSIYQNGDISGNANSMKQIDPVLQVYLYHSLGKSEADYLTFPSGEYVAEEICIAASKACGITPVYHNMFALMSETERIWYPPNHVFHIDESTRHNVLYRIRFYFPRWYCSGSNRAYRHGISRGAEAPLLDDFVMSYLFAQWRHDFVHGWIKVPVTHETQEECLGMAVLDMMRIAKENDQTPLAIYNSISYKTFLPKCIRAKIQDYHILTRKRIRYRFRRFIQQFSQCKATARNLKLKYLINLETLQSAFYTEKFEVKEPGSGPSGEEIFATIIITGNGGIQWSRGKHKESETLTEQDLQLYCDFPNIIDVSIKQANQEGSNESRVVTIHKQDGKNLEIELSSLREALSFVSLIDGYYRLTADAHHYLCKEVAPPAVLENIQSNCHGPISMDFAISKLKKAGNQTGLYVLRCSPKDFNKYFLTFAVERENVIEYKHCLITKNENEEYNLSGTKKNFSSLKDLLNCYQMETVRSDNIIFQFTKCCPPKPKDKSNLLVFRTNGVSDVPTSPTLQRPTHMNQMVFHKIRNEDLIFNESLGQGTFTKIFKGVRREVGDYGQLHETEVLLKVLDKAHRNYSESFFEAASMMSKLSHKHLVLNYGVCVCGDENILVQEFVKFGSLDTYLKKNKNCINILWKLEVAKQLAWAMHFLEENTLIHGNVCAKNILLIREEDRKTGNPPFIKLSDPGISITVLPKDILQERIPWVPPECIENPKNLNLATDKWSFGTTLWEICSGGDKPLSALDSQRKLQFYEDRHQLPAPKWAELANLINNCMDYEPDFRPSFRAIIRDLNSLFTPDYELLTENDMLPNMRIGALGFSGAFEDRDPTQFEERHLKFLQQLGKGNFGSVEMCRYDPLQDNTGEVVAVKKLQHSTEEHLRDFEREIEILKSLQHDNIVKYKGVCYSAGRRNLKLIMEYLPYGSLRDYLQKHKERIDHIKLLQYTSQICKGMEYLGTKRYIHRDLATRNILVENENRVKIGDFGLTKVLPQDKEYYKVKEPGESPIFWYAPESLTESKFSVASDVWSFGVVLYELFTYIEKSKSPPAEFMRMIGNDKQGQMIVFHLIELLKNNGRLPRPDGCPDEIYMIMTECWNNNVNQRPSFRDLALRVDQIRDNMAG
test-details: in vitro JAK kinase assay on ADP Glo platform, JAK2
details: 50 μM ATP, 1 hr at room temperature; read-out: JAK-2 IC50
pIC50 here is simply -log10 of the concentration when that concentration is written in mol/L.

Consider the worked cases shown below.
1. Cc1cnc(Nc2ccc(N3CCC(N4CCOCC4)CC3)cc2)nc1-c1ccc(C(=O)NCC#N)cc1: 8.55
2. N#CCNC(=O)c1ccc(-c2ccnc(Nc3ccc(N4CCC(N5CCNC5=O)CC4)cc3)n2)cc1: 7.96
3. N#CCNC(=O)c1ccc(-c2ccnc(Nc3ccc(N4CCN(C5CCS(=O)(=O)CC5)CC4)cc3)n2)cc1: 7.92
4. N#CCNC(=O)c1ccc(-c2ccnc(Nc3ccc(N4CCC(N5CCC6(CCC(=O)O6)CC5)CC4)cc3)n2)cc1: 8.22
5. N#CCNC(=O)c1ccc(-c2ccnc(Nc3ccc(N4CCN(C5=NCCN5)CC4)cc3)n2)cc1: 7.96

Let me know recorded pIC50 for Cc1nnc(C2CCN(c3ccc(Nc4ncc(C)c(-c5ccc(C(=O)NCC#N)cc5)n4)cc3)CC2)o1 , thanks.
8.59

Supply measured pIC50 of Cc1cnc(Nc2ccc(N3CCC(N4CCCC4=O)CC3)cc2)nc1-c1ccc(C(=O)NCC#N)cc1 in your reply.
8.60

* * *

target-under-test: recombinant purified human JAK3 (Homo sapiens (Human), UniProt P52333)
Sequence (P52333 whole entry): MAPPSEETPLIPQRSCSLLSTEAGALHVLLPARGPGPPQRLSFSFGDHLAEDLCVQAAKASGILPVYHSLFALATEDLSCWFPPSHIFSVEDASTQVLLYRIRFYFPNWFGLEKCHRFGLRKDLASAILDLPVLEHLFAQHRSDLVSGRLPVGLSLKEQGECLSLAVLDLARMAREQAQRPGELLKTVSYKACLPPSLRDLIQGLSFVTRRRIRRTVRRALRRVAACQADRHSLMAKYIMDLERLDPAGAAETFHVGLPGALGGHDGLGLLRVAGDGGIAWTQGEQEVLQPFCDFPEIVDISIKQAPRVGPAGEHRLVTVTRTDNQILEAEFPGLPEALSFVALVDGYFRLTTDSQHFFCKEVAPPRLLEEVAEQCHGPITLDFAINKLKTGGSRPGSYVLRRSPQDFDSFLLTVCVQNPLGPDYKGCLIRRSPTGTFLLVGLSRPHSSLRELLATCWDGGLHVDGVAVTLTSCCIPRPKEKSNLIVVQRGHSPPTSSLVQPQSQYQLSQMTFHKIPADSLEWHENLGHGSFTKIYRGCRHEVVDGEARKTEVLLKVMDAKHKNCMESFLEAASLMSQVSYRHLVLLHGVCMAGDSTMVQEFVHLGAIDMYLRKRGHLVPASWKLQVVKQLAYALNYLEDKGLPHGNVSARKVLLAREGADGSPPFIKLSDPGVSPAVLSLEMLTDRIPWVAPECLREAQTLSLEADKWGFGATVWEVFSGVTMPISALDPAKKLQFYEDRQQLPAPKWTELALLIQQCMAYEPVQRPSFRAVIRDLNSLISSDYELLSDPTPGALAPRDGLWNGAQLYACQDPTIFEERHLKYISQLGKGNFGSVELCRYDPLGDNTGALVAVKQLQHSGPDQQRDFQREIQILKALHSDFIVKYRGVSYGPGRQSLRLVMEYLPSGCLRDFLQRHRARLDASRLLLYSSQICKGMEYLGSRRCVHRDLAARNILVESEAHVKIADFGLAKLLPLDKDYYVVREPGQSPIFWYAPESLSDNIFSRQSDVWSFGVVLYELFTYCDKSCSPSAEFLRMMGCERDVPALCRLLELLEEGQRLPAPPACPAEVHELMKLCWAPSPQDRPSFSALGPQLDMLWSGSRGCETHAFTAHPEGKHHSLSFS
test-details: in vitro JAK kinase assay on ADP Glo platform, JAK3
details: 50 μM ATP, 1 hr at room temperature; read-out: JAK-3 IC50
readout-kind: IC50 (nM)
# unit: nM | format: bare number

Field: example entries. Status: answers known.
1) N#CCNC(=O)c1ccc(-c2ccnc(Nc3ccc(N4CCC(N5CCCS5(=O)=O)CC4)cc3)n2)cc1: 51
2) N#CCNC(=O)c1ccc(-c2ccnc(Nc3ccc(N4CCC(n5cncn5)CC4)cc3)n2)cc1: 66
3) N#CCNC(=O)c1ccc(-c2ccnc(Nc3ccc(N4CCN(C5CCOCC5)CC4)cc3)n2)cc1: 88
4) COc1nnc(C2CCN(c3ccc(Nc4nccc(-c5ccc(C(=O)NCC#N)cc5)n4)cc3)CC2)o1: 74
5) N#CCNC(=O)c1ccc(-c2ccnc(Nc3ccc(N4CCC(N5CCCC5=O)CC4)cc3)n2)cc1: 72

Please look at this compound and report its IC50: Cc1cnc(Nc2ccc(N3CCC(N4CCCC4=O)CC3)cc2)nc1-c1ccc(C(=O)NCC#N)cc1
10.7

Check the records and state IC50 for N#CCNC(=O)c1ccc(-c2ccnc(Nc3ccc(N4CCC(c5nnco5)CC4)cc3)n2)cc1
40

Tell me IC50 reported for Cc1nnc(C2CCN(c3ccc(Nc4ncc(C)c(-c5ccc(C(=O)NCC#N)cc5)n4)cc3)CC2)o1
52.3

State its IC50: CC(=O)N1C2CC1CN(C1CCN(c3ccc(Nc4nccc(-c5ccc(C(=O)NCC#N)cc5)n4)cc3)CC1)C2
50.7

# return recorded IC50 for input N#CCNC(=O)c1ccc(-c2ccnc(Nc3ccc(N4CCN(C5=NCCN5)CC4)cc3)n2)cc1
54

* * *

target-under-test: recombinant purified human JAK2 (Homo sapiens (Human))
test-details: in vitro JAK kinase assay on ADP Glo platform, JAK2
details: 50 μM ATP, 1 hr at room temperature; read-out: JAK-2 IC50
// classify: if (IC50 < 10 nM) satisfied else not satisfied

1) N#CCNC(=O)c1ccc(-c2ccnc(Nc3ccc(N4CCC(N5CCCS5(=O)=O)CC4)cc3)n2)cc1: satisfied
2) N#CCNC(=O)c1ccc(-c2ccnc(Nc3ccc(N4CCC(N5CC6CC(C5)O6)CC4)cc3)n2)cc1: satisfied

Problem: For the compound Cc1cnc(Nc2ccc(N3CCC(N4CCC5(CCCO5)CC4)CC3)cc2)nc1-c1ccc(C(=O)NCC#N)cc1 , is IC50 under 10 nM?
satisfied

Please indicate whether the reported IC50 of N#CCNC(=O)c1ccc(-c2ccnc(Nc3ccc(N4CCC(c5nnco5)CC4)cc3)n2)cc1 is strictly below 10 nM.
satisfied

IC50 under 10 nM? Item: N#CCNC(=O)c1ccc(-c2ccnc(Nc3ccc(N4CCN(C5CCS(=O)(=O)C5)CC4)cc3)n2)cc1 (stereo not shown)
satisfied

Say whether its IC50 is strictly beneath 10 nM. Entry: N#CCNC(=O)c1ccc(-c2ccnc(Nc3ccc(N4CCC(N5CC6OCCOC6C5)C4)cc3)n2)cc1 (stereo not shown)
not satisfied

Please indicate whether the reported IC50 of N#CCNC(=O)c1ccc(-c2ccnc(Nc3ccc(N4CCN(C5CCOCC5)CC4)cc3)n2)cc1 is strictly below 10 nM.
not satisfied

Determine whether this compound shows IC50 lower than 10 nM (ties excluded): N#CCNC(=O)c1ccc(-c2ccnc(Nc3ccc(N4CCC(c5n[nH]c(=O)o5)CC4)cc3)n2)cc1
not satisfied

Does this compound meet the criterion IC50 < 10 nM? N#CCNC(=O)c1ccc(-c2ccnc(Nc3ccc(N4CCC(n5cncn5)CC4)cc3)n2)cc1
not satisfied

Say whether its IC50 is strictly beneath 10 nM. Entry: N#CCNC(=O)c1ccc(-c2ccnc(Nc3ccc(N4CCC(N5CCC6(CCCO6)CC5)CC4)cc3)n2)cc1
satisfied

* * *

target-under-test: recombinant purified human JAK1 (Homo sapiens (Human))
Sequence (P23458 whole entry): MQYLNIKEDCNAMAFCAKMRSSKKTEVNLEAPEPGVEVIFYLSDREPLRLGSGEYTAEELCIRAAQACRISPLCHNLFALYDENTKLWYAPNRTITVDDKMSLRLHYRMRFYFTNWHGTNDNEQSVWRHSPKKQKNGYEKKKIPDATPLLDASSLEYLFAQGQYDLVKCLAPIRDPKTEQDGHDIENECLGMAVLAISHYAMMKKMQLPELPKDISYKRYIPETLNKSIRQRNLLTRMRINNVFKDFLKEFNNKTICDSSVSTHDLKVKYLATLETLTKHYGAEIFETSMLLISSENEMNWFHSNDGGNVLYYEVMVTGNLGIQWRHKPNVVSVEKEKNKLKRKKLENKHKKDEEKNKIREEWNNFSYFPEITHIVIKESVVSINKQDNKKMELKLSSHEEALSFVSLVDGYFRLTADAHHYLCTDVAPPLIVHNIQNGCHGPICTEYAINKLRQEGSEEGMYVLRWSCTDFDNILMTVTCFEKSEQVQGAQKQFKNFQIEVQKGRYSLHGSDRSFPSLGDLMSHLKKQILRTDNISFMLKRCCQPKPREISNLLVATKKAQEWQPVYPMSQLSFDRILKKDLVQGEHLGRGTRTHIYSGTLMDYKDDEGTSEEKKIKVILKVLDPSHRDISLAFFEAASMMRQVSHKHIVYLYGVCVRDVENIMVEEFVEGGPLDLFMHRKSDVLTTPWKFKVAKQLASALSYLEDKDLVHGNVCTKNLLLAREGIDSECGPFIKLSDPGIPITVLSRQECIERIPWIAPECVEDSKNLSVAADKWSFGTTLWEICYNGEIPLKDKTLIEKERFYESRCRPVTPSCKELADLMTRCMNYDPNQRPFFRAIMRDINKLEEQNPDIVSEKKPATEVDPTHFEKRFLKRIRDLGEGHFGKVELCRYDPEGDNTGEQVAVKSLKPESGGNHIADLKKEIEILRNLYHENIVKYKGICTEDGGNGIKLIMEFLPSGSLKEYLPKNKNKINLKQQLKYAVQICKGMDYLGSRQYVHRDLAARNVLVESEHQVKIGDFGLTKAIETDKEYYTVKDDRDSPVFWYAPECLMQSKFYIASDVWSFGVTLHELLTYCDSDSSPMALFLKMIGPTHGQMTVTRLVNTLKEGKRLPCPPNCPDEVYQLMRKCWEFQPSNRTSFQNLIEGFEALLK
test-details: in vitro JAK kinase assay on ADP Glo platform, JAK1
details: 50 μM ATP, 1 hr at room temperature
pIC50: −log10 of the molar value.
Decide using pIC50: a value greater than or equal to 8 is MET, a smaller one is NOT MET.

1) COc1nnc(C2CCN(c3ccc(Nc4nccc(-c5ccc(C(=O)NCC#N)cc5)n4)cc3)CC2)o1: NOT MET

Kindly determine if pIC50 recorded for N#CCNC(=O)c1ccc(-c2ccnc(Nc3ccc(N4CCN(C5=NCCN5)CC4)cc3)n2)cc1 is above or exactly 8.
NOT MET

Could you please find out whether Cc1cnc(Nc2ccc(N3CCC(N4CCOCC4)CC3)cc2)nc1-c1ccc(C(=O)NCC#N)cc1 has pIC50 that meets 8 or exceeds it?
MET

Check this molecule for pIC50 at or above 8: N#CCNC(=O)c1ccc(-c2ccnc(Nc3ccc(N4CCC(N5CCOC5=O)CC4)cc3)n2)cc1
NOT MET

hey, is pIC50 for this one >= 8? Cc1cnc(Nc2ccc(N3CCC(N4CCC5(CCCO5)CC4)CC3)cc2)nc1-c1ccc(C(=O)NCC#N)cc1
MET

Could you please find out whether Cc1nnc(C2CCN(c3ccc(Nc4ncc(C)c(-c5ccc(C(=O)NCC#N)cc5)n4)cc3)CC2)o1 has pIC50 that meets 8 or exceeds it?
MET

pIC50 >= 8 for N#CCNC(=O)c1ccc(-c2ccnc(Nc3ccc(N4CCC(N5CCC6(CCCO6)CC5)CC4)cc3)n2)cc1 ?
MET

hey, is pIC50 for this one >= 8? N#CCNC(=O)c1ccc(-c2ccnc(Nc3ccc(N4CCC(N5CCCS5(=O)=O)CC4)cc3)n2)cc1
MET

hey, is pIC50 for this one >= 8? Cc1cnc(Nc2ccc(N3CCC(N4CCCC4=O)CC3)cc2)nc1-c1ccc(C(=O)NCC#N)cc1
MET

Please tell me: is the molecule N#CCNC(=O)c1ccc(-c2ccnc(Nc3ccc(N4CCC(n5cncn5)CC4)cc3)n2)cc1 at or over 8 in terms of pIC50?
NOT MET

* * *

System: PGPS arthritis, PAW inflammation
test-details: Peptidogylcan Polysaccharide Polymers (PGPS) arthritis
Type: in vivo, Sprague dawley rats
details: rats, values for day 16
Rule: label 1 for % Reduction in PAW inflammation at dose 10 mg/Kg not less than 50%, label 0 for anything less.

1. N#CCNC(=O)c1ccc(-c2ccnc(Nc3ccc(N4CCC(N5CCOCC5)CC4)cc3)n2)cc1: label 1
2. N#CCNC(=O)c1ccc(-c2ccnc(Nc3ccc(N4CCC(n5cncn5)CC4)cc3)n2)cc1: label 1
3. N#CCNC(=O)c1ccc(-c2ccnc(Nc3ccc(N4CCC(N5CCC6(CCCO6)CC5)CC4)cc3)n2)cc1: label 0

Confirm if % Reduction in PAW inflammation at dose 10 mg/Kg reported for the molecule N#CCNC(=O)c1ccc(-c2ccnc(Nc3ccc(N4CCC(N5CC6CC(C5)O6)CC4)cc3)n2)cc1 is 50% or above.
label 1

Hello, I need to know if N#CCNC(=O)c1ccc(-c2ccnc(Nc3ccc(N4CCC(c5n[nH]c(=O)o5)CC4)cc3)n2)cc1 has measured % Reduction in PAW inflammation at dose 10 mg/Kg not below 50%. Thanks!
label 0

Hi team, for Cc1nnc(C2CCN(c3ccc(Nc4nccc(-c5ccc(C(=O)NCC#N)cc5)n4)cc3)CC2)o1 , is the recorded % Reduction in PAW inflammation at dose 10 mg/Kg at or above 50%?
label 1

* * *

target-under-test: recombinant purified human JAK3 (Homo sapiens (Human))
test-details: in vitro JAK kinase assay on ADP Glo platform, JAK3
Type: biochemical
details: 50 μM ATP, 1 hr at room temperature; read-out: JAK-3 IC50
readout-kind: IC50 (nM)
Field format: number, assumed nM, no unit text.

Consider the reported IC50 for these compounds:
1) N#CCNC(=O)c1ccc(-c2ccnc(Nc3ccc(N4CCC(N5CCCC5)C4)cc3)n2)cc1 (centres unmarked): 155
2) Cc1cnc(Nc2ccc(N3CCC(N4CCOCC4)CC3)cc2)nc1-c1ccc(C(=O)NCC#N)cc1: 32
3) N#CCNC(=O)c1ccc(-c2ccnc(Nc3ccc(N4CCN(C5CCS(=O)(=O)C5)CC4)cc3)n2)cc1 (centres unmarked): 40
4) N#CCNC(=O)c1ccc(-c2ccnc(Nc3ccc(N4CCC(N5CCC6(CCC(=O)O6)CC5)CC4)cc3)n2)cc1: 55

Enter measured IC50, system recombinant purified human JAK3 (Homo sapiens (Human)), for the compound shown: Cc1nnc(N2CCN(c3ccc(Nc4nccc(-c5ccc(C(=O)NCC#N)cc5)n4)cc3)CC2)o1
46.9

State recorded IC50 with recombinant purified human JAK3 (Homo sapiens (Human)), entry N#CCNC(=O)c1ccc(-c2ccnc(Nc3ccc(N4CCC(N5CC6OCCOC6C5)CC4)cc3)n2)cc1 (centres unmarked) , no comment.
49

Please look at N#CCNC(=O)c1ccc(-c2ccnc(Nc3ccc(N4CCC(N5CCOC5=O)CC4)cc3)n2)cc1 and tell me its recorded IC50 on recombinant purified human JAK3 (Homo sapiens (Human)).
78

Lab note: recombinant purified human JAK3 (Homo sapiens (Human)) assay, enter IC50 for N#CCNC(=O)c1ccc(-c2ccnc(Nc3ccc(N4CCC(N5CCNC5=O)CC4)cc3)n2)cc1 here
50

Enter recorded IC50 with recombinant purified human JAK3 (Homo sapiens (Human)) for N#CCNC(=O)c1ccc(-c2ccnc(Nc3ccc(N4CCC(c5n[nH]c(=O)o5)CC4)cc3)n2)cc1 here.
56

Please report the measured IC50 for N#CCNC(=O)c1ccc(-c2ccnc(Nc3ccc(N4CCN(C5CCS(=O)(=O)CC5)CC4)cc3)n2)cc1 tested on recombinant purified human JAK3 (Homo sapiens (Human)).
62

Please look at N#CCNC(=O)c1ccc(-c2ccnc(Nc3ccc(N4CCC(N5CC6CC(C5)O6)CC4)cc3)n2)cc1 and tell me its recorded IC50 on recombinant purified human JAK3 (Homo sapiens (Human)).
69

Name the value of IC50 reported for N#CCNC(=O)c1ccc(-c2ccnc(Nc3ccc(N4CCC(N5CC6OCCOC6C5)C4)cc3)n2)cc1 (centres unmarked) when tested on recombinant purified human JAK3 (Homo sapiens (Human)).
138

Give IC50 only, for Cc1cnc(Nc2ccc(N3CCC(N4CCC5(CCCO5)CC4)CC3)cc2)nc1-c1ccc(C(=O)NCC#N)cc1 , using recombinant purified human JAK3 (Homo sapiens (Human)) data.
59

Name the value of IC50 reported for N#CCNC(=O)c1ccc(-c2ccnc(Nc3ccc(N4CCC(N5CCC6(CCCO6)CC5)CC4)cc3)n2)cc1 when tested on recombinant purified human JAK3 (Homo sapiens (Human)).
23
